B1: VH:VL chains; a variant is named by its letters at X, in order (parent)
chain 1: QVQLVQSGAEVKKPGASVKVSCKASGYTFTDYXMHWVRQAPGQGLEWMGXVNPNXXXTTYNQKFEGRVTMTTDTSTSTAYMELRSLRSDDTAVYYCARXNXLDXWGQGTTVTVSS
chain 2: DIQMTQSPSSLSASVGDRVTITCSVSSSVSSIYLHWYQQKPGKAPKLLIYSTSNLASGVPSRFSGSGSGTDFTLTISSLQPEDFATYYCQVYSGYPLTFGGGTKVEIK

Variants of: B1
ASSAY_METHOD_TEXT: yeast display scFab, FACS + sequencing
EXPERIMENTAL_ENDPOINT: non-specific binding call

1. YRRRGYVF | binds
2. SKTKSSSA | no binding
3. YRRRGALA | binds
4. YRTGGSGA | binds
5. YATKGAWA | binds

Problem: Indicate its recorded non-specific binding call; the variant in question is `YAARAAVD`
Solution: binds

Problem: Indicate its recorded non-specific binding call; the variant in question is `VEEEGSVS`
Solution: no binding

Problem: Indicate its recorded non-specific binding call; the variant in question is `VRAGDYLV`
Solution: no binding
